TGI by entry:
Tested on: OVCAR-3 ovarian
run description: NCI tumour cell line growth inhibition, 48 h
Output spec: scalar in µM, unitless text.

1. ClCC#CCSc1ncnc2c1ncn2CC#CCCl    2.95

Then there is this compound:
# TGI measured on OVCAR-3 ovarian for item C[N+](C)([O-])CCCNc1ccnc2cccc([N+](=O)[O-])c12 = 44.9

====

Tested on: SK-MEL-5 melanoma
run description: NCI tumour cell line growth inhibition, 48 h
measured parameter: log10 of TGI (log10 of the value in µM)
A value of 2 here means TGI of 100 in µM, since values are log10.

Solved cases below.
1. CCOC(=S)SCN1C(=O)c2ccccc2S1(=O)=O    1.39
2. O=C1c2ccn(CCCCN3CCC(O)CC3)c2C(=O)c2c1c(O)c1ccccc1c2O    1.98
3. O=C(CCl)Nc1cc(O)c2c(c1)C(=O)c1cccc(O)c1C2=O    0.21
4. CCN1CCNc2c3cc(OC)ccc3nc3c([N+](=O)[O-])ccc1c23    0.40
5. ClCC#CCSc1ncnc2c1ncn2CC#CCCl    0.42
6. Cc1cc(S(=O)(=O)Nc2nc3cc(Cl)ccc3o2)c(SCc2ccccc2)cc1Cl    1.51
7. COc1ccc2c(c1)CC[C@@H]1[C@@H]2CC[C@]2(C)C=C(/C=C/C(=O)c3ccccc3)C[C@@H]12    1.43
8. O=C(Nc1ccc(I)cc1F)c1cc(I)ccc1O    -0.09

For CCCCOc1ccc(/C=N/Nc2cc(C)nc3ccc(Cl)cc23)cc1 the molecule record lists log10 of TGI as 0.47

For COc1cc([C@@H]2c3cc4c(cc3C(OC3O[C@@H]5COC(C)O[C@H]5[C@H](O)[C@H]3O)C3COC(=O)[C@@H]32)OCO4)cc(OC)c1O (stereo partly drawn) the molecule record lists log10 of TGI as 0.90

For CCC1(O)CC(OC2CC(N(C)C)C(OC3CC(O)C(OC4CCC(=O)C(C)O4)C(C)O3)C(C)O2)c2c(O)c3c(c(O)c2C1C(=O)OC)C(=O)c1cccc(O)c1C3=O (stereo not drawn) the molecule record lists log10 of TGI as -1.58

For O=C1c2cc([N+](=O)[O-])sc2C(=O)c2ccsc21 the molecule record lists log10 of TGI as -0.47

For Cc1nnc(-c2ccc(-c3nc4ccccc4o3)cc2)o1 the molecule record lists log10 of TGI as 1.81

For c1ccc(C2[C@@H]3CCCc4ccccc4C3=NN2c2ccccc2)cc1 (stereo partly drawn) the molecule record lists log10 of TGI as 1.67
